Test: clinical
Details: human, in vivo, po
Description: Drug concentration at steady state in human at 10 to 80 mg, po QD after 24 hrs
reported endpoint: concentration at 24 h (nM)
Write the value in nM as a bare number.

Data request: Specify measured concentration at 24 h for CC[C@H](C)C(=O)O[C@H]1C[C@@H](C)C=C2C=C[C@H](C)[C@H](CC[C@@H]3C[C@@H](O)CC(=O)O3)[C@H]21 .
Data returned: 10

###

Target: ATP-binding cassette sub-family C member 2 (Homo sapiens, UniProt Q92887)
Sequence (Q92887 whole entry): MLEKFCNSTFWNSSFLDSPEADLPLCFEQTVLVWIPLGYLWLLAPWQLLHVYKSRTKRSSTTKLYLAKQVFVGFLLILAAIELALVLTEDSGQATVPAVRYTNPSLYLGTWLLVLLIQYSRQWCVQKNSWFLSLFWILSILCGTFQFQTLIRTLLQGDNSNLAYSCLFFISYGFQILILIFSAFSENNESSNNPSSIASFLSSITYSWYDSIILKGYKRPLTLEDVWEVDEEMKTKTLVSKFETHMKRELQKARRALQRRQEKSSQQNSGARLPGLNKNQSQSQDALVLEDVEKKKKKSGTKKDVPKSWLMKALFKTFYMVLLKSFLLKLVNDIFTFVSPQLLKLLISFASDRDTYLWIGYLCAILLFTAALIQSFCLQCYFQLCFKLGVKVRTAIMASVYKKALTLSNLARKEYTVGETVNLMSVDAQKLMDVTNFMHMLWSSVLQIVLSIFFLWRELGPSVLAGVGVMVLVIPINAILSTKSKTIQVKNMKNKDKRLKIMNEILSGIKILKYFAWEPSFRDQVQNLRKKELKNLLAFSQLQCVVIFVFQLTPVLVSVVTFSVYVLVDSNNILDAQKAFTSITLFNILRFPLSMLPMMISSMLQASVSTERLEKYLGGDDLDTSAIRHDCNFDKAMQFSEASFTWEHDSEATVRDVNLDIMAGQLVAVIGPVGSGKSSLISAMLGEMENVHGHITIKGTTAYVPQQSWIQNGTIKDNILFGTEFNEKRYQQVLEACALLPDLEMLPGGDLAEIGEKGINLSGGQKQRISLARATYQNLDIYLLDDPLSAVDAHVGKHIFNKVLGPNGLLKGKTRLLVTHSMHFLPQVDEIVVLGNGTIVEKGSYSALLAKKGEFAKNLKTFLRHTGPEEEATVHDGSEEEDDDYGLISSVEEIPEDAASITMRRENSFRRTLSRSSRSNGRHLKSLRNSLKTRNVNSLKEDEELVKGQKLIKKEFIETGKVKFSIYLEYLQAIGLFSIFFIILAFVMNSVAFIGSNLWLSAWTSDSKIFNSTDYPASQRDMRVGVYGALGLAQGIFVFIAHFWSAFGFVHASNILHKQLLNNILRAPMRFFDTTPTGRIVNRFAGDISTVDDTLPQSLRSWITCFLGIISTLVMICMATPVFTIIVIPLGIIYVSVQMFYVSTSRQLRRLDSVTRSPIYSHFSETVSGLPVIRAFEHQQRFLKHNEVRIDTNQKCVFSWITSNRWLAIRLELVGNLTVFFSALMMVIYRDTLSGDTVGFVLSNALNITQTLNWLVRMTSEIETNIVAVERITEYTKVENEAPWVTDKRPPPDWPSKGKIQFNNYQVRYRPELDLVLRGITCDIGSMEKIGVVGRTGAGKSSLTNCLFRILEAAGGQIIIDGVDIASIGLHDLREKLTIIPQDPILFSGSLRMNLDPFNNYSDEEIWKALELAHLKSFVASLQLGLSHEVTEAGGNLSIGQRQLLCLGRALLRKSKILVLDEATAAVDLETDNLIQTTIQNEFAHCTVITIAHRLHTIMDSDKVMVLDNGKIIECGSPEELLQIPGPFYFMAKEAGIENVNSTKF
Test: Inhibition of human MRP2 overexpressed in Sf9 cell membrane vesicles assessed as uptake of [3H]-estradiol-17beta-D-glucuronide in presence of ATP and GSH measured after 20 mins by membrane vesicle transport assay
Where a name gives a salt, the structure may show the parent alone.
Listed next: entries and their corresponding IC50.

Example entries and their recorded answers appear below.
compound	IC50
CO[C@H]1/C=C/O[C@@]2(C)Oc3c(C)c(O)c4c(c3C2=O)C2=NC3(CCN(CC(C)C)CC3)NC2=C(NC(=O)/C(C)=C\C=C\[C@H](C)[C@H](O)[C@@H](C)[C@@H](O)[C@@H](C)[C@H](OC(C)=O)[C@@H]1C)C4=O [RIFABUTIN]	49.8 µM
C[C@]12CC[C@@H]3c4ccc(O)cc4C[C@@H](CCCCCCCCC[S+]([O-])CCCC(F)(F)C(F)(F)F)[C@H]3[C@@H]1CC[C@@H]2O (stereo partly specified) [FULVESTRANT]	> 133 µM
OCCOCCN1CCN(C2=Nc3ccccc3Sc3ccccc32)CC1 [QUETIAPINE FUMARATE]	> 133 µM
CC(C)OC(=O)C(C)(C)Oc1ccc(C(=O)c2ccc(Cl)cc2)cc1 [FENOFIBRATE]	> 133 µM
CCCC1O[C@@H]2C[C@H]3[C@@H]4CCC5=CC(=O)C=C[C@]5(C)[C@H]4[C@@H](O)C[C@]3(C)[C@]2(C(=O)CO)O1 (stereo partly specified) [BUDESONIDE]	> 133 µM

Kindly consider the entry below.
Data request: Entry CC(C)=CCC1C(=O)N(c2ccccc2)N(c2ccccc2)C1=O [FEPRAZONE] needs its IC50 filled in; supply it.
Data returned: > 133 µM

Values from ChEMBL document CHEMBL4028801
